# System: GST-Bcl-2
# runDescription: TR-FRET binding assay, Bcl-2
# statedConditions: TR-FRET Ki values
Class 1.0: Binding selectivity ratio (Bcl-XL Ki/Bcl-2 Ki) at least 700. Class 0.0: Binding selectivity ratio (Bcl-XL Ki/Bcl-2 Ki) below 700.

| compound | classification |
| --- | --- |
| CN1CCC(Nc2ccc(S(=O)(=O)NC(=O)c3ccc(N4CCN(CC5=C(c6ccc(Cl)cc6)CCCCC5)CC4)cc3Oc3ccc4[nH]ccc4c3)cc2[N+](=O)[O-])CC1 [Example 151] | 1.0 |
| CC1(C)CCC(CN2CCN(c3ccc(C(=O)NS(=O)(=O)c4ccc(N[C@H]5CC[C@H](N6CCOCC6)CC5)c([N+](=O)[O-])c4)c(Oc4cccc5[nH]ccc45)c3)CC2)=C(c2ccc(Cl)cc2)C1 [EXAMPLE 204] | 0.0 |
| CC1(C)CCC(CN2CCN(c3ccc(C(=O)NS(=O)(=O)c4ccc(NCC5CCOCC5)c([N+](=O)[O-])c4)c(Oc4ccc5[nH]ccc5c4)c3)CC2)=C(c2ccc(Cl)cc2)C1 [Example 177] | 1.0 |

Please check the record CC1(C)CCC(CN2CCN(c3ccc(C(=O)NS(=O)(=O)c4ccc(NCC5(N)CCOCC5)c([N+](=O)[O-])c4)c(Oc4ccc5[nH]ccc5c4)c3)CC2)=C(c2ccc(Cl)cc2)C1 [EXAMPLE 188] and state if its Binding selectivity ratio (Bcl-XL Ki/Bcl-2 Ki) is at or above 700. 1.0

Please check the record CC1(C)CCC(CN2CCN(c3ccc(C(=O)NS(=O)(=O)c4cnc(OCC5CCOC5)c(Cl)c4)c(Oc4cccc5[nH]ncc45)c3)CC2)=C(c2ccc(Cl)cc2)C1 (centres unmarked) [EXAMPLE 420] and state if its Binding selectivity ratio (Bcl-XL Ki/Bcl-2 Ki) is at or above 700. 1.0

Please check the record CO[C@H]1CC[C@H](CNc2ccc(S(=O)(=O)NC(=O)c3ccc(N4CCN(CC5=C(c6ccc(Cl)cc6)CC(C)(C)CC5)CC4)cc3Oc3cccc4[nH]ncc34)cc2[N+](=O)[O-])CC1 [EXAMPLE 446] and state if its Binding selectivity ratio (Bcl-XL Ki/Bcl-2 Ki) is at or above 700. 0.0

Please check the record CC1(C)CCC(CN2CCN(c3ccc(C(=O)NS(=O)(=O)c4cnc(OCC5(F)CCOCC5)c(Cl)c4)c(Oc4cccc5[nH]cnc45)c3)CC2)=C(c2ccc(Cl)cc2)C1 [EXAMPLE 443] and state if its Binding selectivity ratio (Bcl-XL Ki/Bcl-2 Ki) is at or above 700. 1.0

Please check the record O=C(NS(=O)(=O)c1ccc(NCC2CCOCC2)c([N+](=O)[O-])c1)c1ccc(N2CCN(CC3=C(c4ccc(Cl)cc4)CCC(O)C3)CC2)cc1Oc1ccc2[nH]ccc2c1 (centres unmarked) [EXAMPLE 248] and state if its Binding selectivity ratio (Bcl-XL Ki/Bcl-2 Ki) is at or above 700. 1.0

Please check the record CC1(C)CCC(CN2CCN(c3ccc(C(=O)NS(=O)(=O)c4ccc(NCCN5CCCCC5=O)c([N+](=O)[O-])c4)c(Oc4ccc5[nH]ccc5c4)c3)CC2)=C(c2ccc(Cl)cc2)C1 [EXAMPLE 267] and state if its Binding selectivity ratio (Bcl-XL Ki/Bcl-2 Ki) is at or above 700. 1.0

Please check the record CC1(C)CCC(CN2CCN(c3ccc(C(=O)NS(=O)(=O)c4ccc(N[C@@H]5CCN(CC#N)C5)c([N+](=O)[O-])c4)c(Oc4cccc5[nH]cnc45)c3)CC2)=C(c2ccc(Cl)cc2)C1 [EXAMPLE 428] and state if its Binding selectivity ratio (Bcl-XL Ki/Bcl-2 Ki) is at or above 700. 1.0

Please check the record CC1(C)CCC(CN2CCN(c3ccc(C(=O)NS(=O)(=O)c4cnc(O[C@@H]5CCN(CC(F)F)C5)c(Cl)c4)c(Oc4cccc5[nH]ncc45)c3)CC2)=C(c2ccc(Cl)cc2)C1 [EXAMPLE 422] and state if its Binding selectivity ratio (Bcl-XL Ki/Bcl-2 Ki) is at or above 700. 1.0

Please check the record CN(C)C1(CNc2ccc(S(=O)(=O)NC(=O)c3ccc(N4CCN(CC5=C(c6ccc(Cl)cc6)CC(C)(C)CC5)CC4)cc3Oc3ccc4[nH]ccc4c3)cc2[N+](=O)[O-])CCOCC1 [EXAMPLE 207] and state if its Binding selectivity ratio (Bcl-XL Ki/Bcl-2 Ki) is at or above 700. 1.0

Please check the record CC1(C)CCC(CN2CCN(c3ccc(C(=O)NS(=O)(=O)c4ccc(NCC5CCOCC5)c(S(=O)(=O)C(F)(F)F)c4)c(Oc4ccc5[nH]ccc5c4)c3)CC2)=C(c2ccc(Cl)cc2)C1 [EXAMPLE 304] and state if its Binding selectivity ratio (Bcl-XL Ki/Bcl-2 Ki) is at or above 700. 1.0

Please check the record CN1CC[C@H](Nc2ccc(S(=O)(=O)NC(=O)c3ccc(N4CCN(CC5=C(c6ccc(Cl)cc6)CC(C)(C)CC5)CC4)cc3Oc3ccc4[nH]ccc4c3)cc2[N+](=O)[O-])C1 [EXAMPLE 234] and state if its Binding selectivity ratio (Bcl-XL Ki/Bcl-2 Ki) is at or above 700. 0.0

Please check the record COCCOCCN1CC[C@@H](Nc2ccc(S(=O)(=O)NC(=O)c3ccc(N4CCN(CC5=C(c6ccc(Cl)cc6)CC(C)(C)CC5)CC4)cc3Oc3cccc4[nH]cnc34)cc2[N+](=O)[O-])C1 [EXAMPLE 429] and state if its Binding selectivity ratio (Bcl-XL Ki/Bcl-2 Ki) is at or above 700. 0.0
